Listing: IC50 of selected compounds
# TESTED ON: Cholinesterase (Equus caballus, UniProt P81908)
# Sequence (P81908 whole entry): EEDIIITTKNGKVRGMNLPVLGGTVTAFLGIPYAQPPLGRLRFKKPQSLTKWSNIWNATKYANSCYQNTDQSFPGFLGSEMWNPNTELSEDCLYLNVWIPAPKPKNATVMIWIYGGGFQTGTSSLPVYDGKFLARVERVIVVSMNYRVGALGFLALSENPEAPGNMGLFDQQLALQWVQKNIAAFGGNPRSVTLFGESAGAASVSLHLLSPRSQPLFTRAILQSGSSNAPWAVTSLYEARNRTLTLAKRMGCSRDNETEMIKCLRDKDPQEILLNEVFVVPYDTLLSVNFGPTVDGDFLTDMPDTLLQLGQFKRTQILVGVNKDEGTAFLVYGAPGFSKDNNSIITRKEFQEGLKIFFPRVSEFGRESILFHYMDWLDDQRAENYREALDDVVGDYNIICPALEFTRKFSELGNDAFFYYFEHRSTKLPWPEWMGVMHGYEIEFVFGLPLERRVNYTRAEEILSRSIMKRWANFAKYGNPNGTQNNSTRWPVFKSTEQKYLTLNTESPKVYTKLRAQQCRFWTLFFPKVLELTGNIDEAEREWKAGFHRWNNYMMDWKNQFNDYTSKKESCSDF
# PROCEDURE DETAILS: Inhibition of equine serum BuChE using butyrylthiocholine iodide substrate by Ellman method based spectrophotometry

SMILES STR	IC50
O=C1Nc2ccccc2/C1=C\c1cc[n+](Cc2ccccc2F)cc1	4270 nM
O=C1Nc2ccccc2/C1=C\c1cc[n+](Cc2ccccc2)cc1	4300 nM
O=C1Nc2ccccc2/C1=C\c1cc[n+](Cc2ccc([N+](=O)[O-])cc2)cc1	7500 nM
COc1cccc(C[n+]2ccc(/C=C3/C(=O)Nc4ccccc43)cc2)c1	2800 nM
O=C1Nc2ccccc2/C1=C\c1cc[n+](Cc2c(Cl)cccc2Cl)cc1	1500 nM
O=C1Nc2ccccc2/C1=C\c1cc[n+](Cc2ccc(Br)cc2)cc1	1900 nM
O=C1Nc2ccccc2/C1=C\c1cc[n+](Cc2ccc(CCl)cc2)cc1	1000 nM
Cc1ccccc1C[n+]1ccc(/C=C2/C(=O)Nc3ccccc32)cc1	887 nM
O=C1Nc2ccccc2/C1=C\c1cc[n+](Cc2ccc(F)cc2)cc1	3100 nM
O=C1Nc2ccccc2/C1=C\c1cc[n+](Cc2cccc(Cl)c2)cc1	1350 nM
O=C1Nc2ccccc2/C1=C\c1cc[n+](Cc2ccc(Cl)c(Cl)c2)cc1	3300 nM
Cc1cccc(C[n+]2ccc(/C=C3/C(=O)Nc4ccccc43)cc2)c1	1700 nM
O=C1Nc2ccccc2/C1=C\c1cc[n+](Cc2ccccc2[N+](=O)[O-])cc1	1600 nM
COc1ccc(C[n+]2ccc(/C=C3/C(=O)Nc4ccccc43)cc2)cc1	7900 nM
O=C1Nc2ccccc2/C1=C\c1cc[n+](Cc2cccc(F)c2)cc1	4500 nM
O=C1Nc2ccccc2/C1=C\c1cc[n+](Cc2ccccc2Br)cc1	1230 nM
